EXPERIMENTAL_PROTOCOL: In vivo pharmacokinetic study
Set-up: species or system SD rats
EXPERIMENTAL_CONTEXT: SD (Sprague-Dawley), rat, plasma, iv; male SD rats, i.v. 5 mg/kg
Method: The SD rats were fasted overnight and dosed i.v. at a dose of 5 mg/kg in a solution of DMSO/PEG 400/water (5%/24%/71%). […] The supernatant was diluted and analyzed by LC-MS/MS. […] The quantification of drug concentration in plasma samples was performed using the internal standard method, and the obtained pharmacokinetic parameters were calculated using Phoenix WinNonlin software.
MEASURED_ATTRIBUTE: half-life

[
  {
    "COMPOUND": "CC[C@H]1OC(=O)[C@H](C)[C@@H](OC(=O)NCCCCCCC#Cc2ccc3c(=O)c(C(=O)O)cn(C)c3c2)[C@H](C)[C@@H](O[C@@H]2O[C@H](C)C[C@H](N(C)C)[C@H]2O)[C@](C)(OC)C[C@@H](C)C(=O)[C@H](C)[C@H]2NC(=O)O[C@@]21C",
    "OBSERVED_VALUE": "3.92 h"
  }
]

With those in mind, consider the next compound.
IN: What value of half-life has been recorded for this entry: CCOC(=O)c1cn(C)c2cc(C#CCCCCCCNC(=O)O[C@H]3[C@H](C)[C@@H](O[C@@H]4O[C@H](C)C[C@H](N(C)C)[C@H]4O)[C@](C)(OC)C[C@@H](C)C(=O)[C@H](C)[C@H]4NC(=O)O[C@]4(C)[C@@H](CC)OC(=O)[C@@H]3C)ccc2c1=O [88h]
OUT: 2.63 h

* * *

Tested on: S. pneumoniae
EXPERIMENTAL_PROTOCOL: MIC, broth microdilution
Type: cell-based, Streptococcus pneumoniae
EXPERIMENTAL_CONTEXT: S. pneumoniae PU09, mef
Kindly supply the reported MIC values for the records listed here.
Give bare numbers, in µg/mL.

Here's what some known entries look like.
[
  {
    "MOLECULE": "CC[C@H]1OC(=O)[C@H](C)[C@@H](OC(=O)NCCCCCC#Cc2ccc3c(=O)c(C(=O)NO)cn(C4CC4)c3c2)[C@H](C)[C@@H](O[C@@H]2O[C@H](C)C[C@H](N(C)C)[C@H]2O)[C@](C)(OC)C[C@@H](C)C(=NOC)[C@H](C)[C@H]2OC(=O)O[C@@]21C [57e]",
    "SYSTEM_NAME": "S. pneumoniae",
    "MIC / µg/mL": 0.5
  },
  {
    "MOLECULE": "CC[C@H]1OC(=O)[C@H](C)[C@@H](OC(=O)NCCCCCCCc2ccc3c(c2)c(=O)c(C(N)=O)cn3C2CC2)[C@H](C)[C@@H](O[C@@H]2O[C@H](C)C[C@H](N(C)C)[C@H]2O)[C@](C)(OC)C[C@@H](C)C(=NOC)[C@H](C)[C@H]2OC(=O)O[C@@]21C [61b]",
    "SYSTEM_NAME": "S. pneumoniae",
    "MIC / µg/mL": 1
  },
  {
    "MOLECULE": "CC[C@H]1OC(=O)[C@H](C)[C@@H](OC(=O)NCCCCCCC#Cc2ccc3c(=O)[nH]cnc3c2)[C@H](C)[C@@H](O[C@@H]2O[C@H](C)C[C@H](N(C)C)[C@H]2O)[C@](C)(OC)C[C@@H](C)C(=O)[C@H](C)[C@H]2NC(=O)O[C@@]21C [88k]",
    "SYSTEM_NAME": "S. pneumoniae",
    "MIC / µg/mL": 0.5
  }
]

IN: What value of MIC has been recorded for this entry: CC[C@H]1OC(=O)[C@H](C)[C@@H](OC(=O)NCCCCC#Cc2ccc3c(c2)c(=O)c(C(=O)O)cn3C2CC2)[C@H](C)[C@@H](O[C@@H]2O[C@H](C)C[C@H](N(C)C)[C@H]2O)[C@](C)(O)C[C@@H](C)CN(C)[C@H](C)[C@H]2OC(=O)O[C@@]21C [109a]
OUT: 2
